Origin of measurements: paper PMC11200944

Test system: MCF-7 breast cancer cell line
Experiment: Anticancer activity (MTT assay)
Format: cell-based
Details: Homo sapiens, MCF7, read-out: Anticancer IC50 (µM), n = 3; MCF-7, MTT, 24 h
Experimental: The anticancer potential of synthesized derivatives was assessed by targeting the MCF-7 breast cancer cell line. The potential newly synthesized derivatives were evaluated for their cytotoxic activity on the MCF-7 cell line (sourced from NCCS in Pune, India) using the MTT (3-[4,5-dimethylthiazol-2-yl]-2,5-diphenyl tetrazolium bromide) assay. […] The absorbance of the resulting solution underwent evaluation using an ELISA plate reader (iMark, Biorad, Hercules, CA, USA) at 540 nm. […]
Quick list: IC50 per entry.

Oc1ccc(/C=C/c2nnc(S)n2/N=C/c2cc3ccccc3cc2O)cc1O [CTh7]    8.53 µM
COc1cccc2c1C(=O)c1c(O)c3c(c(O)c1C2=O)C[C@@](O)(C(=O)CO)C[C@@H]3O[C@H]1C[C@H](N)[C@H](O)[C@H](C)O1 [doxorubicin, reference compound]    3.62 µM

Let's switch to this molecule now.
Query string: Could you share which IC50 value was measured for COc1ccc(C=Nn2c(S)nnc2C=Cc2ccc(O)c(O)c2)cc1 [CTh1] ?
Result string: 148 µM

###

Target: DHFR (Homo sapiens, UniProt P00374)
Construct: purchased Sigma-Aldrich CS0340
Sequence (P00374 1-187): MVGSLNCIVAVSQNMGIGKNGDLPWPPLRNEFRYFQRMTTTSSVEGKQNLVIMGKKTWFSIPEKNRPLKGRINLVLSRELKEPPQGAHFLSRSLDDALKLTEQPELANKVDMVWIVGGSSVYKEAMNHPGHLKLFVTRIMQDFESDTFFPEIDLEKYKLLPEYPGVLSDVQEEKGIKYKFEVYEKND
Assay: In vitro DHFR inhibition assay (DHFR assay kit CS0340, spectrophotometric, 340 nm)
Format: biochemical
Conditions: read-out: DHFR Inhibition IC50 (µM) ± SD, n = 3, 180 s
Description: This assessment was carried out using the DHFR assay kit (catalog number CS0340, Sigma-Aldrich, Burlington, MA, USA) by using a spectrophotometric method. The enzymatic […] of dihydrofolic acid to tetrahydrofolic acid was monitored at 340 nm for 180 s, following the procedure recommended by the manufacturer of the assay kit. […] Each well of a 96-well clear microplate was filled with a calculated amount of assay buffer (190 μL), followed by 6 μL of diluted DHFR, which was thoroughly mixed. […]
REPORTED ENDPOINT: IC50 (µM)
Number in µM, nothing else.

Query string: Could you share which IC50 value was measured for Nn1c(S)nnc1C=Cc1ccc(O)c(O)c1 [CTh] ?
Result string: 16.9

###

system: MCF-7 breast cancer cell line; assay: Anticancer activity (MTT assay); assay type: cell-based; details: Homo sapiens, MCF7, 24 h, read-out: Anticancer IC50 (µM), n = 3
REPORTED ENDPOINT: IC50 (µM)
Number in µM, nothing else.

Oc1ccc(C=Nn2c(S)nnc2C=Cc2ccc(O)c(O)c2)cc1    122

Let's switch to this compound now.
Query string: Hello, I am looking for reported IC50 with MCF-7 breast cancer cell line for O=[N+]([O-])c1ccccc1C=Nn1c(S)nnc1C=Cc1ccc(O)c(O)c1 . Could you help?
Result string: 89.2

###

Quick list: IC50 per entry.
molecular target: DHFR (Homo sapiens, UniProt P00374); construct: purchased Sigma-Aldrich CS0340; experiment: In vitro DHFR inhibition assay (DHFR assay kit CS0340, spectrophotometric, 340 nm); assay type: biochemical; details: 180 s
Number in µM, nothing else.

COc1ccc(C=Nn2c(S)nnc2C=Cc2ccc(O)c(O)c2)cc1    17
Oc1ccc(/C=C/c2nnc(S)n2/N=C/c2cc3ccccc3cc2O)cc1O    0.15

Let's switch to this molecule now.
Query string: Could you share which IC50 value was measured for O=[N+]([O-])c1ccccc1C=Nn1c(S)nnc1C=Cc1ccc(O)c(O)c1 ?
Result string: 10.5
